Documented GI50 across a set of compounds
# Test system: NCI-H522
# Experiment Description: NCI tumour cell line growth inhibition, 48 h
Active and inactive are the calls of the source. No stated cut-off is given here; in the data, active = GI50 up to about 1.1 µM and inactive = higher.
Measured Property: GI50

Compound: CCOC(=O)C(C)NC(=O)C(C)NC(=O)C(C)NC(=O)C(C)NC(=O)C(C)NC(=O)OCc1ccccc1 (stereo unspecified)
Reported Measurement: > 100 µM (inactive)
//
Compound: COc1ccc(N(CN2C(=O)CCC2C(=O)O)C(C)=O)cc1 (stereo unspecified)
Reported Measurement: > 100 µM (inactive)
//
Compound: O=C(O)CN(CC(=O)O)C1CCCCC1N1CC(=O)OC(=O)C1 (stereo unspecified)
Reported Measurement: > 100 µM (inactive)
//
Compound: N#CC(C(=O)c1ccccc1F)c1nc2cc(C(F)(F)F)ccc2s1 (stereo unspecified)
Reported Measurement: 17.3 µM (inactive)
//
Compound: CSc1nc(-c2ccccc2)[nH]c(=O)n1
Reported Measurement: > 100 µM (inactive)
//
Compound: NCCCN1CCN(CCCNc2ccc3ncn4c5ccccc5c(=O)c2c34)CC1
Reported Measurement: 0.456 µM (active)
//
Compound: CCCN(CCCC(NC(C)=O)C(=O)NCc1ccccc1)C(=O)NC (stereo unspecified)
Reported Measurement: > 100 µM (inactive)
//
Compound: C=CCn1c2ccccc2c2c(C)c3cnccc3c(C)c21
Reported Measurement: 5.52 µM (inactive)
//
Compound: COc1cc(/C=C/C=C2\CC(C)C/C(=C\C=C\c3ccc(O)c(OC)c3)C2=O)ccc1O (stereo unspecified)
Reported Measurement: 0.522 µM (active)
//
Compound: CC1=CC2C(C(C)C)CC1C1C(=O)OC(=O)C21 (stereo unspecified)
Reported Measurement: 52.7 µM (inactive)
//
Compound: O=C(O)CN(CC(=O)O)C1CCCCC1N(CC(=O)O)CC(=O)NCCN=C=S (stereo unspecified)
Reported Measurement: > 100 µM (inactive)
//
Compound: O=Cc1ccc2c(c1)CC1(C2)Cc2ccc(C=O)cc2C1
Reported Measurement: 22.6 µM (inactive)
//
Compound: COc1nc2ccc(COc3ccc(C(=O)O)cc3)cc2nc1OC
Reported Measurement: > 100 µM (inactive)
//
Compound: Cc1cccc2c(N)c3cccc(C(=O)NCC[N+](C)(C)Cc4ccc([N+](=O)[O-])s4)c3nc12
Reported Measurement: 5.28 µM (inactive)
//
Compound: COc1cccc(C2c3cc4c(cc3OC(N3CCOCC3)C2C)OCO4)c1OC (stereo unspecified)
Reported Measurement: 4.26 µM (inactive)
//
Compound: CCOC(=O)c1c(C)n(-c2ccc(Cl)cc2)c2c1cc(O)c1[nH]c3c(c12)CCCC3
Reported Measurement: 24.3 µM (inactive)
//
Compound: O=C(/N=C(/Nc1ccccc1)SCS/C(=N\C(=O)c1ccco1)Nc1ccccc1)c1ccco1
Reported Measurement: 27.4 µM (inactive)
//
Compound: CCOC(=O)C(=O)Nc1c(C)cccc1CC
Reported Measurement: > 100 µM (inactive)
//
Compound: CCOC(=O)C(NNS(=O)(=O)c1ccc(C)cc1)S(=O)(=O)C(F)(F)C(F)(F)C(F)(F)C(F)(F)F (stereo unspecified)
Reported Measurement: > 100 µM (inactive)
//
Compound: N=C(N)SC1c2ccccc2-c2cc([N+](=O)[O-])ccc21 (stereo unspecified)
Reported Measurement: 2.51 µM (inactive)
//
Compound: CCC1(O)C(=O)OCc2c1cc1n(c2=O)Cc2cc3cc(OC)c(OC)cc3nc2-1 (stereo unspecified)
Reported Measurement: 8.61 µM (inactive)
